The origin of these recorded values is patent US20220274980A1.

TARGET SYSTEM: ENL YEATS domain (association with H3K27cr) (Homo sapiens)
PROTOCOL DESCRIPTION: biochemical
STATED CONDITIONS: ENL (YEATS)-H3K27cr HTRF (IC50, μM), Table 1
As shown below, each of these molecules has a reported IC50 value.
Report the figure in µM without appending any unit label.

Examples with answers:
INSERT INTO assay_data (molecule, uom, reported_result) VALUES
  ('CC(NC(=O)c1ccc2nc(-c3ccccc3)cn2c1)c1ccccn1 (stereo not drawn)', 'µM', 6),
  ('COC[C@@H]1CC[C@H]1NC(=O)c1ccc2nc(-c3ccccc3)cn2c1', 'µM', 13),
  ('CC1CC(NC(=O)c2ccc3nc(-c4ccccc4)cn3c2)C1 (stereo not drawn)', 'µM', 4.6),
  ('CC(C)NC(=O)c1ccc2nc(-c3ccc(CN)cc3)cn2c1', 'µM', 3.72),
  ('CC(C)NC(=O)c1ccc2nc(-c3cccc(N)c3)cn2c1', 'µM', 10.7);

Now consider the entry below.
Look at this molecule and give its reported IC50. O=C(NCCN1CCCCC1)c1cccc(-c2cn3cc(C(=O)NC4CCC4)ccc3n2)c1 0.124

----------
TARGET SYSTEM: ENL YEATS domain (association with H3K27cr) (Homo sapiens, UniProt Q03111)
Sequence (Q03111 1-148): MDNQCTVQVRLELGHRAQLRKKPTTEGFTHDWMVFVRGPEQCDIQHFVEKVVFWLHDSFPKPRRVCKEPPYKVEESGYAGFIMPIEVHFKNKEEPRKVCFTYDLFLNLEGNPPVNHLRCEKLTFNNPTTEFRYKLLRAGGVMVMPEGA
PROTOCOL DESCRIPTION: biochemical
STATED CONDITIONS: ENL (YEATS)-H3K27cr HTRF (IC50, μM), Table 1
MEASUREMENT TYPE: IC50 (µM)
Report the figure in µM without appending any unit label.

Examples with answers:
INSERT INTO measurements (smiles_text, reported_result) VALUES
  ('O=C(NC1CCC1)c1ccc2nc(-c3cccc(NS(=O)(=O)NCCN4CCCCC4=O)c3)cn2c1', 0.21),
  ('O=C(NC1CCC1)c1ccc2nc(-c3cccc(NS(=O)(=O)NCCN4CCC(O)CC4)c3)cn2c1', 0.05),
  ('O=C(NC1CCC1)c1ccc2nc(-c3ccccc3)cn2c1', 0.506);

Now consider the entry below.
Request - read-out IC50 | tested on ENL YEATS domain (association with H3K27cr) (Homo sapiens, UniProt Q03111) | compound O=C(NC1CC1)c1ccc2nc(-c3ccccc3)cn2c1 9

----------
TARGET SYSTEM: ENL(YEATS)-HiBiT (Homo sapiens)
Sequence (Q03111 1-138 limits assumed): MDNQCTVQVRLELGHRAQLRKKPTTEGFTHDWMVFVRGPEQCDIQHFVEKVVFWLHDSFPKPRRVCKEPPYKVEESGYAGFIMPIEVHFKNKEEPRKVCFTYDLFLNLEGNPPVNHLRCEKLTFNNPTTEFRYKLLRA
PROTOCOL DESCRIPTION: cell-based
pIC50: −log10 of the molar value.
Label True when pIC50 is at or above 5; anything below gets False.

INSERT INTO measurements (molecule, class_assignment) VALUES
  ('CC1(C)CCN(CCNS(=O)(=O)Nc2cccc(-c3cn4cc(C(=O)NC5CCC5)ccc4n3)c2)CC1', 'True'),
  ('CC1CC(NC(=O)c2ccc3nc(-c4ccccc4)cn3c2)C1 (centres unmarked)', 'False'),
  ('C#C[C@H]1C[C@@H](NC(=O)c2ccc3nc(-c4ccccc4)cn3c2)C1', 'False');

Check the entry O=C(NC1CCCC1)c1ccc2nc(-c3ccccc3)cn2c1 : does pIC50 equal or exceed 5? False

# iterate: CC(C)NC(=O)c1ccc2nc(-c3ccc(C#N)cc3)cn2c1 False

# iterate: O=C(NC1CC(O)C1)c1ccc2nc(-c3ccccc3)cn2c1 (centres unmarked) False

# iterate: CC(C)NC(=O)c1ccc2nc(-c3cccc(C#N)c3)cn2c1 False

# iterate: N#CC1(NC(=O)c2ccc3nc(-c4ccccc4)cn3c2)CCC1 False

# iterate: O=C(NC1CC2(CC2)C1)c1ccc2nc(-c3ccccc3)cn2c1 True

# iterate: O=C(NC1CCC1O)c1ccc2nc(-c3ccccc3)cn2c1 (centres unmarked) False

# iterate: O=C(NCc1cccnc1)c1ccc2nc(-c3ccccc3)cn2c1 False

# iterate: CC1(NC(=O)c2ccc3nc(-c4ccccc4)cn3c2)CCC1 False

# iterate: O=C(NC1CCC1)c1ccc2nc(-c3cccc(NS(=O)(=O)CCCN4CCCCC4)c3)cn2c1 True

# iterate: O=C(NC1CCCCC1O)c1ccc2nc(-c3ccccc3)cn2c1 (centres unmarked) False

# iterate: O=C(NC1CCC1)c1ccc2nc(-c3cccc(S(=O)(=O)NCCCN4CCCCC4)c3)cn2c1 True

# iterate: O=C(N[C@@H]1CC[C@@H]1c1ccccc1)c1ccc2nc(-c3ccccc3)cn2c1 False

# iterate: CO[C@@H]1CC[C@H]1NC(=O)c1ccc2nc(-c3ccccc3)cn2c1 False

# iterate: CC(C)C1CC(NC(=O)c2ccc3nc(-c4ccccc4)cn3c2)C1 (centres unmarked) False
